The values you see were collected from patent US10435406B2.

# assay-system: μ-opioid receptor (Homo sapiens (Human))
# experiment: μ-opioid receptor [35S]GTPγS functional assay (U-2 OS)
# Assay type: biochemical
Give EC50 for every item shown.

Query (compound): COc1ccc2c(c1)[C@]13CCN(CC4CC4)[C@H](C2)[C@]1(O)CC1=CC(=O)NC1C3 (stereo partly shown) ; field requested: EC50
846 nM

Given the entry `COc1ccc2c(c1)[C@]13CCN(CC4CC4)[C@H](C2)[C@]1(O)C[C@H]1CC(=O)N[C@H]1C3` , report its measured EC50.
223 nM

Form field: reported EC50 of `COc1ccc2c(c1)[C@]13CCN(C)[C@H](C2)[C@]1(O)C[C@H]1CC(=O)N[C@H]1C3`
92.9 nM

Please look up its EC50: `COc1ccc2c(c1)[C@]13CCN(CC4CC4)[C@H](C2)[C@]1(O)C[C@H]1CC(=O)N(C)[C@H]1C3`
349 nM

Bench note: what EC50 did `O=C1C[C@@H]2C[C@@]3(O)[C@H]4Cc5ccc(O)cc5[C@@]3(CCN4CC3CC3)C[C@@H]2N1` show?
1.59 nM

Given the entry O=C1C=C2C[C@@]3(O)[C@H]4Cc5ccc(O)cc5[C@@]3(CCN4CC3CC3)CC2N1 (stereo partly shown) , report its measured EC50.
6.35 nM

What does the record list as EC50 for `COc1ccc2c(c1)[C@]13CCN(CC4CC4)[C@H](C2)[C@]1(O)C[C@H]1CC(=O)N(CC(C)C)[C@H]1C3` ?
82.2 nM

----------
# assay-system: UniProt P41145
# experiment: κ-opioid receptor [35S]GTPγS functional assay (U-2 OS)
# Assay type: biochemical
# Protocol: Functional [^35S]GTPγS binding assays were conducted as follows. […] Fifty μl/well scintillation cocktail (Perkin Elmer, Shelton, Conn.) was added and plates were counted in a Packard Top-Count for 1 min/well. […] In TABLE 4, activity response of certain Compounds of the Invention to the μ- and κ-opioid receptors was determined as described above for functional assays using U-2 OS cells.
In plain terms, low EC50, meaning strictly below 100 nM, gives fulfilled, and everything else gives not fulfilled.

Hi there! Is EC50 for COc1ccc2c(c1)[C@]13CCN(CC4CC4)[C@H](C2)[C@]1(O)C[C@H]1CC(=O)N(C)[C@H]1C3 [Compound 15] below 100 nM, do you know?
not fulfilled

Please state whether EC50 is below 100 nM for O=C1C[C@@H]2C[C@@]3(O)[C@H]4Cc5ccc(O)cc5[C@@]3(CCN4CC3CC3)C[C@@H]2N1 [Compound 10]
fulfilled

Just wondering, is EC50 of CCN1C(=O)C[C@@H]2C[C@@]3(O)[C@H]4Cc5ccc(OC)cc5[C@@]3(CCN4CC3CC3)C[C@@H]21 [Compound 11] below 100 nM?
fulfilled

Lab log: compare recorded EC50 with 100 nM; is it strictly lower for COc1ccc2c(c1)[C@]13CCN(CC4CC4)[C@H](C2)[C@]1(O)C[C@H]1CC(=O)N[C@H]1C3 [Compound 1] ?
fulfilled

Would you kindly verify if EC50 of COc1ccc2c(c1)[C@]13CCN(CC4CC4)[C@H](C2)[C@]1(O)CC1=CC(=O)NC1C3 (stereo partly drawn) [Compound 8] is strictly less than 100 nM?
not fulfilled

Item COc1ccc2c(c1)[C@]13CCN(C)[C@H](C2)[C@]1(O)CC1=CC(=O)N[C@H]1C3 [Compound 2] : EC50 beneath 100 nM, strictly?
not fulfilled
